Provenance of the data: PubChem BioAssay AID1745844

test system: rodent lifetime carcinogenesis bioassay, tumor incidence TD50; assay: carcinogenic potency in animals, long-term in vivo studies, CPDB compilation (AID 1745844); settings: rat; strain Wistar; males; inhaled; site: kidney; lesion: nephroblastoma; dosed 52 weeks; study length 125 weeks
measuredQuantity: TD50 (mg/kg/day)
Answers are plain numbers, in mg/kg/day.

State the recorded TD50 for this entry: C=CCl
4510

---

test system: rodent lifetime carcinogenesis bioassay, tumor incidence TD50; assay: carcinogenic potency in animals, long-term in vivo studies, CPDB compilation (AID 1745844); conditions: rat; strain Fischer 344; males; in feed; site: liver; lesion: hepatoma; dosed 72 weeks; study length 93 weeks
measuredQuantity: TD50

State the recorded TD50 for this entry: Cc1ccccc1N=O
59.2 mg/kg/day
